Cited source for all entries: patent US20050020492A1

# measured on: human MCH-1R (human, UniProt Q99705 1-353)
# Sequence (Q99705 whole entry): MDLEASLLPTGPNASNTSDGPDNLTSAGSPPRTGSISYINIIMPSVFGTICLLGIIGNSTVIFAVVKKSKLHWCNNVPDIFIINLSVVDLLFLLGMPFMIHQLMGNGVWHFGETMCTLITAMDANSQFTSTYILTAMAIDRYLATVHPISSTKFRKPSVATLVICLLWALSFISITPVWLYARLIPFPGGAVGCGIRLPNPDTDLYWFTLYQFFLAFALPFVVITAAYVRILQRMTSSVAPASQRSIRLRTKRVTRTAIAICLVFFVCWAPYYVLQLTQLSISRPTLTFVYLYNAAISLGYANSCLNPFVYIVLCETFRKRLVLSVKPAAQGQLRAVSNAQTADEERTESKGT
# test details: cell-based or functional assay
measured parameter: EC50, aequorin bioluminescence
Please state the value followed by its unit.

Query: EC50, aequorin bioluminescence; subject: XCMLGRVYRPC (HELM PEPTIDE1{[ac].[dF].C.M.L.G.R.V.Y.R.P.C.[am]}$PEPTIDE1,PEPTIDE1,3:R3-12:R3$$$V2.0; SMILES CSCC[C@@H]1NC(=O)[C@@H](NC(=O)[C@@H](Cc2ccccc2)NC(C)=O)CSSC[C@@H](C(N)=O)NC(=O)[C@@H]2CCCN2C(=O)[C@H](CCCNC(=N)N)NC(=O)[C@H](Cc2ccc(O)cc2)NC(=O)[C@H](C(C)C)NC(=O)[C@H](CCCNC(=N)N)NC(=O)CNC(=O)[C@H](CC(C)C)NC1=O) [SEQ. ID. NO. 9 (Ac-D-Phe^6 analog of Ac-hMCH(6-16)-NH2)]
66 nM
